assay: Growth inhibition of human U373 cells after 72 hrs by MTT assay; format: functional, cell-based, U-373MG ATCC; conditions: U373 MG
pIC50: −log10 of the molar value.
PARAMETER: pIC50

>>> df
                                    molecule  reading_qualifier  obs_value
 0  CC1(C)CC(NC(=S)NCc2ccccc2)c2cc(Cl)ccc2O1 (configuration not stated)                  =       4.19
 1  CC1(C)CC(NC(=S)Nc2cccc(C#N)c2)c2cc(F)ccc2O1 (configuration not stated)                  =       4.52
 2  COc1ccc(Cl)cc1C(=O)NCCc1ccc(S(=O)(=O)NC(=O)NC2CCCCC2)cc1 [GLYBURIDE]                  <       4.00
 3   Cn1nnc2c(C(N)=O)ncn2c1=O [TEMOZOLOMIDE]                  =       3.66
 4  CC1(C)CC(NC(=O)NCc2ccccc2)c2cc(F)ccc2O1 (configuration not stated)                  =       4.96
 5  CC1(C)CC(NC(=S)Nc2cccc(Cl)c2)c2cc(Br)ccc2O1 (configuration not stated)                  =       5.10
 6  CC(=O)NC1CC(C)(C)Oc2ccc(Cl)cc21 (configuration not stated)                  <       4.00
 7  COc1ccc(Cl)cc1CNC(=S)Nc1cccc([N+](=O)[O-])c1                  =       4.49
 8  CC1(C)CC(NC(=O)Nc2ccccc2Cl)c2cc(F)ccc2O1 (configuration not stated)                  =       4.40
 9  CC1(C)CC(NC(=O)Nc2ccccc2Cl)c2cc(Cl)ccc2O1 (configuration not stated)                  =       4.77
10  CC1(C)CC(NC(=S)Nc2ccc([N+](=O)[O-])cc2)c2cc(Br)ccc2O1 (configuration not stated)                  =       5.05
11  COc1ccccc1NC(=S)NC1CC(C)(C)Oc2ccc(Br)cc21 (configuration not stated)                  =       4.66
12  O=[N+]([O-])c1ccc(NC(=S)NC2CCOc3ccc(Cl)cc32)cc1 (configuration not stated)                  =       5.10
13  O=[N+]([O-])c1cccc(NC(=S)NCc2cccc(Cl)c2)c1                  =       4.49
14  O=[N+]([O-])c1ccc(NC(=S)NCc2cccc(Cl)c2)cc1                  =       4.57
15  CC1(C)CC(NC(=S)Nc2cccc([N+](=O)[O-])c2)c2cc(F)ccc2O1 (configuration not stated)                  =       5.22
16  CC1(C)CC(NC(=S)Nc2ccc(Cl)cc2)c2cc(Br)ccc2O1 (configuration not stated)                  =       5.15
17  CC1(C)CC(NC(=O)NCc2ccccc2)c2cc(Br)ccc2O1 (configuration not stated)                  =       4.57
18  CC1(C)CC(NC(=S)NCc2ccccc2)c2cc(F)ccc2O1 (configuration not stated)                  =       4.57
19  CC1(C)CC(NC(=O)Nc2cccc(Cl)c2)c2cc(F)ccc2O1 (configuration not stated)                  =       4.41
20  CC1(C)CC(NC(=O)Nc2cccc(Cl)c2)c2cc(Br)ccc2O1 (configuration not stated)                  =       4.16
21  CC1(C)CC(NC(=S)Nc2ccccc2)c2cc(Cl)ccc2O1 (configuration not stated)                  =       4.34
